Origin of the recorded values: paper PMC4336329

Target: human ether-à-go-go-related gene (hERG) potassium channel (human)
Assay: primary screen, population patch clamp on CHO cells stably expressing hERG; higher = less effect of the substance
Hit rate of the full screen: of about 310,000 compounds, about 14,000 (4.5%) showed an effect of 50% or more. Effects have a minus sign here. The entries come from a sample that favours strong results as a whole.
MEASURED PROPERTY: hERG current change (%, negative = inhibition) at 10uM
In your response, put the unit directly after the numeric value.

Worked examples follow.
MOLECULE	RESULT
COc1ccc(OC2C(=O)N(Cc3ccc4c(c3)OCO4)C2c2sccc2C)cc1 (centres unmarked)	-5.31%
COC/C=C/C1=CC2=CC(=O)C(C)(OC(=O)c3cnc4ccccc4n3)C(=O)C2=CN1CCOC (centres unmarked)	13.3%
Cc1cc(NC(=O)CSc2nc3c(C)c(C)ccc3cc2C)no1	-44.6%
Fc1ccc(C2CC(c3ccccc3)n3ncnc3N2)cc1 (centres unmarked)	-29.3%
C/C(=N\OCC(=O)NCC(F)(F)F)c1cc2ccccc2o1	-1.58%

Query :: # get_value(readout='hERG current change (%, negative = inhibition) at 10uM', item= c1ccc(C2CC(c3ccccc3)n3ncnc3N2)cc1 (centres unmarked) )
Result :: -17.3%

* * *

Target: human ether-à-go-go-related gene (hERG) potassium channel (human)
Assay: primary screen, population patch clamp on CHO cells stably expressing hERG; higher = less effect of the substance
About 14,000 (4.5%) of roughly 310,000 compounds showed an effect of 50% or more. Effects have a minus sign here. The entries come from a sample that favours strong results as a whole.
MEASURED PROPERTY: hERG current change (%, negative = inhibition) at 10uM (%)
The response must be a number in % with no trailing unit.

COMPOUND	RECORDED NUMBER
CCOC(=O)c1ccc(N2C(=O)CC(C3CCCO3)C2=O)cc1 (stereo not drawn)	-11.2
Cc1cc(C(=O)C(=O)O)c(C)n1-c1ccc(Cl)cc1	-43.4

Query :: Can you look up the measured hERG current change (%, negative = inhibition) at 10uM of CCc1cc2c(=O)nc3n(c2s1)Cc1ccccc1/C3=C(/O)c1cccc([N+](=O)[O-])c1 for me?
Result :: -4.6

* * *

Measured hERG current change (%, negative = inhibition) at 10uM of individual entries
Molecular target: human ether-à-go-go-related gene (hERG) potassium channel (human, UniProt Q12809)
Sequence (Q12809 whole entry, looked up): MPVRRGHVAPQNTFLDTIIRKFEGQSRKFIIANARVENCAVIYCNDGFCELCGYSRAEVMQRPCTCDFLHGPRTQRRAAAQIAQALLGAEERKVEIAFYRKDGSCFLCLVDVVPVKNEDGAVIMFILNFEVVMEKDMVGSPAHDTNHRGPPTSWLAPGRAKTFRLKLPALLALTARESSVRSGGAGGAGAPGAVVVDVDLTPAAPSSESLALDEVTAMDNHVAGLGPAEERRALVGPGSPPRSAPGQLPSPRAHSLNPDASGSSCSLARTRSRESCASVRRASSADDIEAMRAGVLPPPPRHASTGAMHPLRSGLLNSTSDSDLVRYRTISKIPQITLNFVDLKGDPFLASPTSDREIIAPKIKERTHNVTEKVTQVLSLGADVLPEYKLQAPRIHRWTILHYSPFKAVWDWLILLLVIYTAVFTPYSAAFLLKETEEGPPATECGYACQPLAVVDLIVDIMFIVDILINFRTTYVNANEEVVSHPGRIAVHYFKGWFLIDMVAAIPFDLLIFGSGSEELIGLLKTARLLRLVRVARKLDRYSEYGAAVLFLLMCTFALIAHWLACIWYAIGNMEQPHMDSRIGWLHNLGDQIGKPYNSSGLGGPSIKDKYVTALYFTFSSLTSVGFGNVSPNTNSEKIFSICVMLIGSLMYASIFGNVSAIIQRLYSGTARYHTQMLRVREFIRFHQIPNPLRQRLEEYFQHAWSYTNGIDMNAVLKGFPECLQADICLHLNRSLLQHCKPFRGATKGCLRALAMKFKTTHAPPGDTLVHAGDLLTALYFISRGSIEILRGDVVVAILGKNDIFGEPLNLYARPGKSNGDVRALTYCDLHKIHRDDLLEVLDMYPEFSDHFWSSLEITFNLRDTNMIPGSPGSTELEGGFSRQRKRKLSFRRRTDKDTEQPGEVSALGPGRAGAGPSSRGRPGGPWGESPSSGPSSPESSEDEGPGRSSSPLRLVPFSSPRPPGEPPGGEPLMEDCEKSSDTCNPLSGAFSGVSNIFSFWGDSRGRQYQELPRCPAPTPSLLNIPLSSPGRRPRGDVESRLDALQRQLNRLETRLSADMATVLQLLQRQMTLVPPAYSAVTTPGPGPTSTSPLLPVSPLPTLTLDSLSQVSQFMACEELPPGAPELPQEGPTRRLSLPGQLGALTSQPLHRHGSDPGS
Experiment: primary screen, population patch clamp on CHO cells stably expressing hERG; higher = less effect of the substance
Screen size: about 310,000 compounds; about 14,000 (4.5%) showed an effect of 50% or more. The effect is printed as a negative number. This excerpt belongs to a sample that is enriched for strong results.
Response body: numeric value in %, unit text excluded.

Some solved entries appear below for comparison.
MOL	TEST SYSTEM	RECORDED NUMBER
Cn1c(SCC(=O)NC2CCCC2)nnc1-c1ccncc1	human ether-à-go-go-related gene (hERG) potassium channel (human, UniProt Q12809)	33.9
COc1cc(C(=O)N2CCC(c3nc(-c4cccnc4)no3)CC2)cc(OC)c1OC	human ether-à-go-go-related gene (hERG) potassium channel (human, UniProt Q12809)	-8.08
CCN(Cc1ccccc1)C(=O)CCS(=O)(=O)c1ccc2c(c1)n(C)c(=O)c(=O)n2C	human ether-à-go-go-related gene (hERG) potassium channel (human, UniProt Q12809)	-15
CCOC(=O)c1cc(-c2cccnc2)nn1-c1ccccc1	human ether-à-go-go-related gene (hERG) potassium channel (human, UniProt Q12809)	9.52

Query :: Consider the compound CCCCN(CCCC)C(=O)CCS(=O)(=O)c1ccc2c(c1)n(C)c(=O)c(=O)n2C and give its measured hERG current change (%, negative = inhibition) at 10uM.
Result :: -69.2

* * *

Biological target: human ether-à-go-go-related gene (hERG) potassium channel (human)
Assay: primary screen, population patch clamp on CHO cells stably expressing hERG; higher = less effect of the substance
Out of some 310,000 compounds screened, about 14,000 (4.5%) showed an effect of 50% or more. The effect is printed as a negative number. This is one part of a sample in which strong results are shown more often than they occur.
MEASURED PROPERTY: hERG current change (%, negative = inhibition) at 10uM (%)
Entry rule: numbers only, all in %.

Past entries and their recorded results:
MOLECULE	VALUE UNIT	RECORDED NUMBER
O=C(Cc1cccc(F)c1)N1CCCC(CO)(Cc2ccc(F)cc2F)C1 (stereo not shown)	%	-9.84
Cc1ccccc1CC1(CO)CCCN(C(=O)Cc2c(F)ccc(F)c2F)C1 (stereo not shown)	%	-0.736
CCN(CC)c1cc(Oc2ccccc2)ncn1	%	-9.54
COc1ccc(/C=C2\N=C(c3ccccc3)N(c3ccc(C(=O)O)cc3)C2=O)cc1OC	%	6.76
O=C(O)C(Cc1ccc(Cl)cc1)NS(=O)(=O)c1ccc(Cl)cc1 (stereo not shown)	%	27.1

Query :: Could you share which hERG current change (%, negative = inhibition) at 10uM value was measured for N=c1c2c(ncn1CCN1CCOCC1)Oc1cc(O)ccc1C2c1ccccc1 (stereo not shown) ?
Result :: -42.9

* * *

The following molecules are shown together with reported hERG current change (%, negative = inhibition) at 10uM values.
Target: human ether-à-go-go-related gene (hERG) potassium channel (human);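 note: peak tail current of the secondary pulse compared with the same well before compound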
Test: primary screen, population patch clamp on CHO cells stably expressing hERG; higher = less effect of the substance
In all, about 310,000 compounds went through this assay and about 14,000 (4.5%) showed an effect of 50% or more. Effects have a minus sign here. Only a selection was taken, and strong results are over-represented in it overall.
Please don't drop the unit; write it after the number.

// known answers, use as guide
MOLECULE	TEST SYSTEM	RESULT
CCOc1ccccc1Nc1nnc(SC(C)C(=O)Nc2nc(-c3ccccc3)cs2)s1 (stereo not shown)	human ether-à-go-go-related gene (hERG) potassium channel (human)	1.46%
COc1cccc(CCNC(=O)C2CCCN(c3ncnc4c3nc3n4CCCCC3)C2)c1OC (stereo not shown)	human ether-à-go-go-related gene (hERG) potassium channel (human)	-74.7%
Cc1cccc(CN2CCc3c(OCC(=O)NCc4ccco4)cccc3C2=O)c1	human ether-à-go-go-related gene (hERG) potassium channel (human)	-51.2%
CN(c1ccccc1)S(=O)(=O)c1cccc(NC(=O)COC(=O)C2CCCCC2)c1	human ether-à-go-go-related gene (hERG) potassium channel (human)	13.7%
O=C(COc1cccc2c1CCN(Cc1ccccc1)C2=O)NCc1ccco1	human ether-à-go-go-related gene (hERG) potassium channel (human)	-70.3%

Query :: Returns the measured hERG current change (%, negative = inhibition) at 10uM for the input molecule. Input: Cc1cccc(N2CCN(CCCNC(=O)C3CCCN(c4ncnc5c4nc4n5CCCCC4)C3)CC2C)c1 (stereo not shown)
Result :: -67.8%

Query :: Item under review: Cc1cccc(Nc2ccccc2C(=O)O)c1C . Reported hERG current change (%, negative = inhibition) at 10uM?
Result :: 2.88%

Query :: Return reported hERG current change (%, negative = inhibition) at 10uM; argument: CC(=O)c1cn(-c2ccc(Cl)cc2)c(=O)n(Cc2ccc(Br)cc2)c1=O
Result :: -11.9%

Query :: Query (molecule): COC(=O)c1ccc(COc2cccc3c2CCN(Cc2cccc(C)c2)C3=O)o1 ; field requested: hERG current change (%, negative = inhibition) at 10uM
Result :: -3.41%

Query :: Need hERG current change (%, negative = inhibition) at 10uM of CN(C)S(=O)(=O)c1cccc(NC(=O)COC(=O)CCC(=O)c2ccc(F)cc2)c1 , thanks.
Result :: -36%

Query :: Please look up its hERG current change (%, negative = inhibition) at 10uM: O=C(Nc1cccc(S(=O)(=O)N2CCCCC2)c1)C1CC1
Result :: -10.6%

Query :: Returns the measured hERG current change (%, negative = inhibition) at 10uM for the input molecule. Input: O=C(NCCc1ccc(Cl)cc1)C1CCCN(c2ncnc3c2nc2n3CCCCC2)C1 (stereo not shown)
Result :: -57.2%

Query :: Given O=C(COc1ccccc1-c1ccccc1)NCc1ccco1 , state its recorded hERG current change (%, negative = inhibition) at 10uM.
Result :: -28%

Query :: Fill in the blank: the reported hERG current change (%, negative = inhibition) at 10uM of Cc1ccc2nc(C)n(-c3ccc(F)cc3)c(=O)c2c1 is ____.
Result :: 21.3%

* * *

Molecular target: human ether-à-go-go-related gene (hERG) potassium channel (human);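 note: peak tail current of the secondary pulse compared with the same well before compound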
Assay: primary screen, population patch clamp on CHO cells stably expressing hERG; higher = less effect of the substance
Screen size: about 310,000 compounds; about 14,000 (4.5%) showed an effect of 50% or more. The effect is printed as a negative number. This excerpt belongs to a sample that is enriched for strong results.
Measured hERG current change (%, negative = inhibition) at 10uM, listed per entry.
Write down the numeric answer in % and omit the unit.

Known hERG current change (%, negative = inhibition) at 10uM results, listed for orientation:
COMPOUND	TEST SYSTEM	VALUE UNIT	RECORDED NUMBER
Cc1cccc(-c2nnc(SCC(=O)Nc3cc(C)on3)n2C)c1	human ether-à-go-go-related gene (hERG) potassium channel (human)	%	1.68
Cc1cccc(C(=O)NCC(=O)NC(C)CCc2ccccc2)c1 (stereo not drawn)	human ether-à-go-go-related gene (hERG) potassium channel (human)	%	-0.165
Cc1ccc(S(=O)(=O)N2CCn3cccc3C2C)cc1 (stereo not drawn)	human ether-à-go-go-related gene (hERG) potassium channel (human)	%	-22.7
Br.Cc1nc(-c2ccc(C(=O)O)cc2)cs1	human ether-à-go-go-related gene (hERG) potassium channel (human)	%	7.39
CC1c2cccn2CCN1S(=O)(=O)c1ccccc1 (stereo not drawn)	human ether-à-go-go-related gene (hERG) potassium channel (human)	%	5.9

Query :: Kindly state the measured hERG current change (%, negative = inhibition) at 10uM obtained for COc1cccc(OCCOc2ccc(/C=C3\C(=N)N4N=C(S(C)(=O)=O)SC4=NC3=O)cc2OC)c1 with human ether-à-go-go-related gene (hERG) potassium channel (human).
Result :: 23.4

Query :: What value of hERG current change (%, negative = inhibition) at 10uM on human ether-à-go-go-related gene (hERG) potassium channel (human) does COc1ccc(CN2C(=O)c3cccnc3C2=O)cc1S(=O)(=O)N1CCOc2ccc(C)cc21 have?
Result :: -11.6

Query :: For human ether-à-go-go-related gene (hERG) potassium channel (human), provide hERG current change (%, negative = inhibition) at 10uM of O=C(COC(=O)Cc1cn2ccsc2n1)Nc1nc2ccccc2s1 please.
Result :: 8.88

Query :: Please state recorded hERG current change (%, negative = inhibition) at 10uM (tested on human ether-à-go-go-related gene (hERG) potassium channel (human)) of COc1ccc(N2CCN(C(=O)COC(=O)c3ccc(-n4nc(C)cc4C)cc3)CC2)cc1;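 note: peak tail current of the secondary pulse compared with the same well before compound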
Result :: -1.95

Query :: // lookup hERG current change (%, negative = inhibition) at 10uM | system=human ether-à-go-go-related gene (hERG) potassium channel (human) | key= COc1ccc(CCC(=O)Nc2cc(Cl)ccc2N2CCN(C)CC2)cc1;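 note: peak tail current of the secondary pulse compared with the same well before compound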
Result :: -50.1

Query :: Tell me reported hERG current change (%, negative = inhibition) at 10uM for COc1ccc(CC(=O)Nc2cc(Cl)ccc2N2CCCC2)cc1 , tested with human ether-à-go-go-related gene (hERG) potassium channel (human).
Result :: 15.7
